Test system: Vero E6 infected with SARS-CoV-2
Experiment: inhibition of SARS-CoV-2 cytopathic effect; higher = more antiviral protection, active = above 15
Conditions: 100 nM; 48 h
Listed next: entries and their corresponding inhibition of SARS-CoV-2 cytopathic effect.
Readout Label: inhibition of SARS-CoV-2 cytopathic effect (%)

>>> quantitative_readout("C#Cc1cnc2nc(O)n(C(CC)CC)c2n1 [tirasemtiv]")
1.78
>>> quantitative_readout("CCCC(=O)OCOC(=O)C1=C(C)NC(C)=C(C(=O)OC)C1c1cccc(Cl)c1Cl (centres undefined) [cleviprex]")
2.92
>>> quantitative_readout("COc1c(N2CCNC(C)C2)c(F)cc2c(=O)c(C(=O)O)cn(C3CC3)c12 (centres undefined) [gatifloxacin]")
0.16
>>> quantitative_readout("O=C(O)/C=C/CO [trans-4-hydroxycrotonic-acid]")
1.39
>>> quantitative_readout("Cc1ccc(C(=O)Nc2ccc(CN3CCN(C)CC3)c(C(F)(F)F)c2)cc1C#Cc1cnc2cccnn12 [ponatinib]")
5.2
>>> quantitative_readout("CCN1CCC(n2cc(CNc3cc(Cl)c4ncc(C#N)c(Nc5ccc(F)c(Cl)c5)c4c3)nn2)CC1 [cot-inhibitor-2]")
0.28
>>> quantitative_readout("OC[C@@H](O)[C@@H](O)[C@H](O)[C@@H](O)CO [sorbitol]")
-0.23
>>> quantitative_readout("O=C(O)C[C@H]1CC[C@H](c2ccc(NC(=O)c3nnc(Nc4ccc(F)c(F)c4)o3)cc2)CC1")
0.13
>>> quantitative_readout("NC1(c2ccc(-c3nc4ccn5c(=O)[nH]nc5c4cc3-c3ccccc3)cc2)CCC1")
2.84
